Where do these numbers come from? They come from patent US20200040103A1.

# Target entity: recombinant human KLK5 (human) (UniProt Q9Y337)
# Sequence (Q9Y337 67-293): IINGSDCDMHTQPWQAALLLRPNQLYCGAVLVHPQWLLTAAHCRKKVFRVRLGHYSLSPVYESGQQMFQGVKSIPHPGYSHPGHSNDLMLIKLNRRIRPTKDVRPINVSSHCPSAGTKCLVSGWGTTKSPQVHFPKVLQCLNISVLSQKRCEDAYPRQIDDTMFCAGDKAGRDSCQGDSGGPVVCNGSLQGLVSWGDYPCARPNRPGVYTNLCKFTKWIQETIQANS
# Protocol notes: Kiapp as the y-intercept of the line of IC50 (nM) versus KLK5 (nM), Z-VPR-pNA
Result type: pKi
pKi field: float, defined as -log10 of concentration (mol/L).

Asked: Please give the measured pKi for this binder: 10H3 (antibody, V domains shown) VH: QSVKESEGGLIKPTDTLTLTCTVSGFSLSTFAINWVRQAPGNGLEWIGAIGRGGSAYYASWAKSRSTITKNTNLNTVTLKMTRPTAADTATYFCARENAGSGWGELDIWGPGTLVTVSS VL: AYEMTQTPASVEVAVGGTVTINCQASESISSDLAWYQQKPGQRPKLLIYAASTLASGVPSRFKGSGSGTEFTLSISGVQCADAATYYCQQGYTWNNVDNVFGGGTEVVVK
Given back: 9.41

Asked: Fill in: pKi of 10C5 (antibody, V domains shown) VH: QSLEESGGGLVKPTDTLTLTCTVSGFSLSSYGVTWVRQAPGRGLEWIGYITSNYGVSYYASWAKSRSTITRNTNLNTVTLKMTSLTAADTATYFCARENPDYGYAYDAWGPGTLVTVSV VL: AYDMTQTPASLEAAVGGTVTINCQASESISNELSWYQQKPGQPPDLLIYYASTLASGVPSRFKGSGSGTEFTLTISDLECADAATYYCAQGFGSSGVENVFGGGTEVVVK is ___
Given back: 10.39

Asked: # pKi lookup, item 9F2 (antibody, V domains shown) VH: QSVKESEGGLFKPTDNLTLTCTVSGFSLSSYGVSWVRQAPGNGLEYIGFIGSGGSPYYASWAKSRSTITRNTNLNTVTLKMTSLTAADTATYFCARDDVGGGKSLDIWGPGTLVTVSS VL: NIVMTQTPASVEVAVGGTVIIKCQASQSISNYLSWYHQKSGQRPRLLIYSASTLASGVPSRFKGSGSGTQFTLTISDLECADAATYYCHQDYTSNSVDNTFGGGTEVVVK
Given back: 9.42
